- target-system: SARS-CoV-2 nsp5 main protease (M^pro) (Severe acute respiratory syndrome coronavirus 2, UniProt P0DTD1)
measured-parameter: log10(IC50) (log10 of the value in µM)
Kindly note that the scale is log10 and the underlying IC50 is in µM.

Task: So what does the record say about log10(IC50) for "COC(=O)C[C@H](NC(=O)OC(C)(C)C)C(=O)N(Cc1ccccc1)C1(C(=O)NCc2ccccc2)CCN(Cc2ccccc2)CC1" ?
Result: 2.21

Task: So what does the record say about log10(IC50) for "COC(=O)C[C@H](NC(=O)OCc1ccccc1)C(=O)N(Cc1ccccc1)C1(C(=O)NCc2ccccc2)CCN(Cc2ccccc2)CC1" ?
Result: 1.81

Task: So what does the record say about log10(IC50) for CC(C)(C)OC(=O)NC(Cc1ccccc1)C(=O)N(Cc1ccccc1)C1(C(=O)NCc2ccccc2)CCN(Cc2ccc([N+](=O)[O-])cc2)CC1 (centres unmarked) ?
Result: 2.29

Task: So what does the record say about log10(IC50) for Cc1ccc(CC(NC(=O)OC(C)(C)C)C(=O)N(Cc2ccccc2)C2(C(=O)NCc3ccccc3)CCN(Cc3ccccc3)CC2)cc1 (centres unmarked) ?
Result: 1.15

Task: So what does the record say about log10(IC50) for "CC(C)(C)OC(=O)N[C@@H](Cc1ccccc1)C(=O)N(Cc1ccccc1)C1(C(=O)NCc2ccccc2)CCN(Cc2ccccc2)CC1" ?
Result: 1.34

Task: So what does the record say about log10(IC50) for "CC(C)(C)OC(=O)N[C@@H](Cc1ccccc1)C(=O)N(Cc1ccc(F)cc1)C1(C(=O)NCc2ccccc2)CCN(Cc2ccccc2)CC1" ?
Result: 1.18

Task: So what does the record say about log10(IC50) for CC(C)(C)OC(=O)NC(Cc1ccccc1)C(=O)N(Cc1ccccc1)C1(C(=O)NCc2ccccc2)CCN(Cc2ccc(F)cc2)CC1 (centres unmarked) ?
Result: 1.83

Task: So what does the record say about log10(IC50) for "COC(=O)C[C@H](NC(=O)OCc1ccccc1)C(=O)N(Cc1ccc(F)cc1)C1(C(=O)NCc2ccccc2)CCN(Cc2ccccc2)CC1" ?
Result: 1.58

---

CC50 values, listed per item
- procedure-text: in vitro
- assay-context: human

Would you please look over these solved cases?
Task: So what does the record say about CC50 for COC(=O)C[C@H](NC(=O)OCc1ccccc1)C(=O)N(Cc1ccc(C)cc1)C1(C(=O)NCc2ccccc2)CCN(CCc2ccccc2)CC1 [Compound 59] ?
Result: 15 µM

Task: So what does the record say about CC50 for CCC(C)N(C(=O)[C@H](CC(=O)OC)NC(=O)OC(C)(C)C)C1(C(=O)NCc2ccccc2)CCN(Cc2ccccc2)CC1 (stereo partly drawn) [Compound 20] ?
Result: 31 µM

Task: So what does the record say about CC50 for COC(=O)C[C@H](NC(=O)OC(C)(C)C)C(=O)N(Cc1ccccc1)C1(C(=O)NC2CCCCC2)CCN(Cc2ccccc2)CC1 [Compound 16] ?
Result: 42 µM

Next:
Task: So what does the record say about CC50 for COC(=O)C[C@H](NC(=O)OCC1c2ccccc2-c2ccccc21)C(=O)N(Cc1ccccc1)C1(C(=O)NCc2ccccc2)CCN(Cc2ccccc2)CC1 [Compound 35] ?
Result: > 100 µM

Task: So what does the record say about CC50 for CCC(C)N(C(=O)[C@H](CC(=O)OC)NC(=O)OCc1ccccc1)C1(C(=O)NCc2ccccc2)CCN(Cc2ccccc2)CC1 (stereo partly drawn) [Compound 36] ?
Result: 27 µM

Task: So what does the record say about CC50 for COc1ccc(CC(NC(=O)OC(C)(C)C)C(=O)N(Cc2ccccc2)C2(C(=O)NCc3ccccc3)CCN(Cc3ccccc3)CC2)cc1 (stereo not drawn) [Compound 51] ?
Result: > 100 µM

Entry source: paper PMC9416004
